Where these numbers come from: ChEMBL document CHEMBL1131800

Molecular target: Carbonic anhydrase 2 (Homo sapiens) (UniProt P00918)
Test: In vitro binding affinity against human carbonic anhydrase II (hCA-II human cloned isozyme).
Quick list: Ka per entry.
quantity kind: Ka (µM)

>>> recorded_value("O=S(=O)(NCCc1c[nH]cn1)C(Cl)(Cl)Cl")
13
>>> recorded_value("O=[N+]([O-])c1cccc(S(=O)(=O)NCCc2c[nH]cn2)c1")
9
>>> recorded_value("O=S(=O)(NCCc1c[nH]cn1)c1cccs1")
5
>>> recorded_value("O=S(=O)(NCCc1c[nH]cn1)C(F)(F)C(F)(F)C(F)(F)C(F)(F)C(F)(F)C(F)(F)C(F)(F)C(F)(F)F")
0.5
>>> recorded_value("O=C(O)c1ccccc1S(=O)(=O)NCCc1c[nH]cn1")
1.2
>>> recorded_value("O=S(=O)(NCCc1c[nH]cn1)c1ccc(I)cc1")
10
>>> recorded_value("O=C(O)c1c(Br)c(Br)c(Br)c(Br)c1S(=O)(=O)NCCc1c[nH]cn1")
0.3
>>> recorded_value("O=C(O)c1ccc(S(=O)(=O)NCCc2c[nH]cn2)cc1")
0.8
>>> recorded_value("O=C(NCCc1c[nH]cn1)NS(=O)(=O)c1ccc(Cl)cc1")
0.08
>>> recorded_value("O=S(=O)(NCCc1c[nH]cn1)c1cc(Cl)ccc1Cl")
5
>>> recorded_value("O=S(=O)(NCCc1c[nH]cn1)c1ccc(F)cc1")
12
>>> recorded_value("O=S(=O)(NCCc1c[nH]cn1)c1ccc(Br)cc1")
10
>>> recorded_value("O=S(=O)(NCCc1c[nH]cn1)c1cc(Cl)cc(Cl)c1O")
7
>>> recorded_value("CC(=O)Nc1ccc(S(=O)(=O)NCCc2c[nH]cn2)cc1")
20
>>> recorded_value("O=[N+]([O-])c1ccc(S(=O)(=O)NCCc2c[nH]cn2)cc1Cl")
6
>>> recorded_value("Nc1ccc(S(=O)(=O)NCCc2c[nH]cn2)cc1")
14
>>> recorded_value("O=S(=O)(NCCc1c[nH]cn1)C(F)(F)C(F)(F)C(F)(F)C(F)(F)F")
0.9
>>> recorded_value("Cc1ccccc1S(=O)(=O)NC(=O)NCCc1c[nH]cn1")
0.15
>>> recorded_value("Cc1cc(C)c(S(=O)(=O)NCCc2c[nH]cn2)c(C)c1")
35
>>> recorded_value("NCCc1c[nH]cn1")
125
>>> recorded_value("COc1ccc(S(=O)(=O)NCCc2c[nH]cn2)cc1")
22
>>> recorded_value("CN(C)S(=O)(=O)NCCc1c[nH]cn1")
13
>>> recorded_value("O=S(=O)(Cc1ccccc1)NCCc1c[nH]cn1")
34
>>> recorded_value("O=[N+]([O-])c1ccc(S(=O)(=O)NCCc2c[nH]cn2)cc1")
10
>>> recorded_value("O=S(=O)(NCCc1c[nH]cn1)c1cccc2ccccc12")
10
